# TEST_SYSTEM: Cytochrome P450 2C9 (Homo sapiens, UniProt P11712)
# Sequence (P11712 whole entry): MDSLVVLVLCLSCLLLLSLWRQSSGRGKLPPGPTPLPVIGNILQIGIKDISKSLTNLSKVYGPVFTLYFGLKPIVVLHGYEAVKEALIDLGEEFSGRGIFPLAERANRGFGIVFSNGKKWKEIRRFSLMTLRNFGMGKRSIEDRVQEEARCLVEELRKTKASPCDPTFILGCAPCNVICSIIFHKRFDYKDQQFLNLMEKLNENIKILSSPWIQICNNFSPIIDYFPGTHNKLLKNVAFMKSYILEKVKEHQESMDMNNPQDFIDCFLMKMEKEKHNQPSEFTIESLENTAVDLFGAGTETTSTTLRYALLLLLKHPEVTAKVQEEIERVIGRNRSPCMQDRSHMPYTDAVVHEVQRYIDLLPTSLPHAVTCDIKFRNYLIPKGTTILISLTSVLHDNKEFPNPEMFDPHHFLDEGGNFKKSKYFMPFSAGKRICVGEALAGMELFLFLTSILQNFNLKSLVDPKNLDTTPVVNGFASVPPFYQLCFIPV
# METHOD_DESCRIPTION: Inhibition of CYP2C9 (unknown origin)
# Format: ADME
MEASUREMENT_LABEL: IC50

Would you mind telling me what IC50 value was observed for CC1CCNc2c(C(=O)NC/C=C/S(C)(=O)=O)cccc21 (stereo unspecified) ?
> 100 µM
